Molecular target: T1, cynomolgus monkey serum albumin (cynomolgus monkey, UniProt A2V9Z4 25-608)
T1 construct: Immobilised on SPR chips; also called cynoSA; cynomolgus albumin
Test: SPR Biacore 8K+ SCK, albumin on chip, pH 7.4
Parameter: kon

Could you tell me which kon is on file for Alb23 G99A (VHH, VHH alone) VHH: EVQLLESGGGLVQPGGSLRLSCAASGFTFRSFGMSWVRQAPGKGPEWVSSISGSGSDTLYADSVKGRFTISRDNSKNTLYLQMNSLRPEDTAVYYCTIAGSLSRSSQGTLVTVSS ?
533000 M⁻¹ s⁻¹

Could you tell me which kon is on file for Alb23 L59A (VHH, VHH alone) VHH: EVQLLESGGGLVQPGGSLRLSCAASGFTFRSFGMSWVRQAPGKGPEWVSSISGSGSDTAYADSVKGRFTISRDNSKNTLYLQMNSLRPEDTAVYYCTIGGSLSRSSQGTLVTVSS ?
797000 M⁻¹ s⁻¹

Could you tell me which kon is on file for Alb23 G33A/S101A (VHH, VHH alone) VHH: EVQLLESGGGLVQPGGSLRLSCAASGFTFRSFAMSWVRQAPGKGPEWVSSISGSGSDTLYADSVKGRFTISRDNSKNTLYLQMNSLRPEDTAVYYCTIGGALSRSSQGTLVTVSS ?
881000 M⁻¹ s⁻¹

Could you tell me which kon is on file for Alb23 G100A (VHH, VHH alone) VHH: EVQLLESGGGLVQPGGSLRLSCAASGFTFRSFGMSWVRQAPGKGPEWVSSISGSGSDTLYADSVKGRFTISRDNSKNTLYLQMNSLRPEDTAVYYCTIGASLSRSSQGTLVTVSS ?
701000 M⁻¹ s⁻¹

Could you tell me which kon is on file for Alb23 M34A (VHH, VHH alone) VHH: EVQLLESGGGLVQPGGSLRLSCAASGFTFRSFGASWVRQAPGKGPEWVSSISGSGSDTLYADSVKGRFTISRDNSKNTLYLQMNSLRPEDTAVYYCTIGGSLSRSSQGTLVTVSS ?
1.95e+06 M⁻¹ s⁻¹

Origin of the recorded values: patent US20260152573A1
